Data origin, for the record: patent US11142515B2

Molecular target: p38MAPKγ (MAPK12) (Homo sapiens, UniProt P53778)
Construct: purchased Life Technologies
Sequence (P53778 1-367): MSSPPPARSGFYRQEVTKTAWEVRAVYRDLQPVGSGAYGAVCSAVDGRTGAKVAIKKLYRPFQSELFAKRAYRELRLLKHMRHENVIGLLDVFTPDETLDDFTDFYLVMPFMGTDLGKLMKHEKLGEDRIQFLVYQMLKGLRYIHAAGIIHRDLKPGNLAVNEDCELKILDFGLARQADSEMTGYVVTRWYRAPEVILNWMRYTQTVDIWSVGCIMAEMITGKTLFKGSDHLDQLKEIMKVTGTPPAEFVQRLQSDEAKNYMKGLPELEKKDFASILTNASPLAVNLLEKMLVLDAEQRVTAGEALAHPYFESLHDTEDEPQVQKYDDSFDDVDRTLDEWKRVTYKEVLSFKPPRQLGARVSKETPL
Assay: p38 MAPKγ enzyme inhibition (Z-LYTE FRET)
Format: biochemical
Conditions: Table 2B, unit inferred; read-out: p38 MAPKγ (Enzyme Profile)
Protocol: The enzyme inhibitory activities of compounds disclosed herein were determined by FRET using synthetic peptides labelled with both donor and acceptor fluorophores (Z-LYTE, Life Technologies, Paisley, UK). The inhibitory activities of compounds of the invention against p38MAPKγ (MAPK12: Life Technologies), were evaluated by determining the level of activation/phosphorylation of the target peptide. […]
pIC50: −log10 of the molar value.
measurement kind: pIC50

Past entries and their recorded results:
| compound smiles | measurement kind | value measured |
| --- | --- | --- |
| CO[C@H]1CCN(C(=O)c2cnc(Nc3cc(COc4ccc(NC(=O)Nc5cc(C(C)(C)C)nn5-c5cccc(C)c5)c5ccccc45)ccn3)cn2)C1 | pIC50 | 5.91 |
| Cc1ccc(-n2nc(C(C)(C)C)cc2NC(=O)Nc2ccc(OCc3ccnc(Nc4cnc(C(=O)NCCO)cn4)c3)c3ccccc23)cc1 | pIC50 | 7.02 |

A: Cc1ccc(-n2nc(C(C)(C)C)cc2NC(=O)Nc2ccc(OCc3ccnc(Nc4cncc(C5CCN(C)CC5)n4)c3)c3ccccc23)cc1
B: Cc1cc(C)cc(-n2nc(C(C)(C)C)cc2NC(=O)Nc2ccc(OCc3ccnc(Nc4cnccn4)c3)c3ccccc23)c1
C: CCc1cncc(Nc2cc(COc3ccc(NC(=O)Nc4cc(C(C)(C)C)nn4-c4cc(C)cc(F)c4)c4ccccc34)ccn2)n1
D: CCc1cncc(Nc2cc(COc3ccc(NC(=O)Nc4cc(C(C)(C)C)nn4-c4ccc(OC)nc4)c4ccccc34)ccn2)n1
## Task Ordering criterion: pIC50; begin with the maximum. Give me the labels in the order the question wants.
## Result A, B, D, C
